Source: ChEMBL document CHEMBL3856280

# system_tested: HSP60/HSP10 (Homo sapiens, UniProt P10809)
# Sequence (P10809 whole entry): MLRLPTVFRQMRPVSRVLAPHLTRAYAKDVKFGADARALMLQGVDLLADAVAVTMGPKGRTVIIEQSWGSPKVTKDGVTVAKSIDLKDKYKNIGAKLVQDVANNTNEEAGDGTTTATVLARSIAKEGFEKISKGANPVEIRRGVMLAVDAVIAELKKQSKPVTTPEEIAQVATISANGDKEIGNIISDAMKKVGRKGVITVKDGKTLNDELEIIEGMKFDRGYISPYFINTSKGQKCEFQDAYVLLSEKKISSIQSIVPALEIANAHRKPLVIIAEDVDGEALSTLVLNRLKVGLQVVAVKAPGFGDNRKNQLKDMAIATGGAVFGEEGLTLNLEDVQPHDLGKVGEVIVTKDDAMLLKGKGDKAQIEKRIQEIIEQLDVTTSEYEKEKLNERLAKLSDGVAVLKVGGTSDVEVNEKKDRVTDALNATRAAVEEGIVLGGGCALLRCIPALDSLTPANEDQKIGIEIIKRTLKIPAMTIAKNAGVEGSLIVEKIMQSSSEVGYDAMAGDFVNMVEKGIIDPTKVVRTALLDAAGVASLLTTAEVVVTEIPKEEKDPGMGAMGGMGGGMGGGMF
# Sequence (P61604 whole entry, further chain): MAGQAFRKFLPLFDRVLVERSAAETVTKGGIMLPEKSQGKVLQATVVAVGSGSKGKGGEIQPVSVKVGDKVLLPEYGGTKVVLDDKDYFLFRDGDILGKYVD
# test: Inhibition of human mitochondrial HSP60/HSP10 expressed in Escherichia coli DH5alpha/BL21 (DE3) assessed as inhibition of denatured MDH refolding preincubated for 10 mins followed by ATP addition measured after 40 to 60 mins by fluorescence based assay
reported_property: IC50 (µM)
Write the number in µM without appending the unit.

Example results:
1) COC(=O)c1cccc(S(=O)(=O)Nc2ccc(-c3nc4cc(NS(=O)(=O)c5cccc(C(=O)OC)c5)ccc4o3)cc2)c1	95
2) Cc1ccc(C(=O)Nc2ccc(S(=O)(=O)O)c3cc(S(=O)(=O)O)cc(S(=O)(=O)O)c23)cc1NC(=O)c1cccc(NC(=O)Nc2cccc(C(=O)Nc3cc(C(=O)Nc4ccc(S(=O)(=O)O)c5cc(S(=O)(=O)O)cc(S(=O)(=O)O)c45)ccc3C)c2)c1	11
3) N#Cc1ccccc1S(=O)(=O)Nc1ccc(-c2nc3cc(NS(=O)(=O)c4ccccc4C#N)ccc3o2)cc1	86
4) O=S(=O)(Nc1ccc(-c2nc3cc(NS(=O)(=O)c4ccc(Cl)cc4)ccc3o2)cc1)c1ccc(Cl)cc1	96
5) N#Cc1cccc(S(=O)(=O)Nc2ccc(-c3nc4cc(NS(=O)(=O)c5cccc(C#N)c5)ccc4o3)cc2)c1	91

[ask] Output IC50 of O=S(=O)(Nc1ccc(-c2nc3cc(NS(=O)(=O)c4ccc5ncsc5c4)ccc3o2)cc1)c1ccc2ncsc2c1
[reply] 49

[ask] Provide measured IC50 value, entry: O=[N+]([O-])c1ccc(S(=O)(=O)Nc2ccc(-c3nc4cc(NS(=O)(=O)c5ccc([N+](=O)[O-])cc5)ccc4o3)cc2)cc1
[reply] 65
